Test system: HCT-15 colon
Assay: NCI-60 one-dose screen, 48 h (100 = growth as untreated, 0 = no growth, -100 = all killed)
Settings: 10 µM unless noted
Protocol: Growth inhibition of the HCT-15 human tumor cell line is measured as a screen for anti-cancer activity. Cells are grown in 96 well plates and exposed to the test compound for 48 hours. Compounds are tested at a single concentration, which is 10^-5 M for most compounds. The reported endpoint is percent growth (GI% or GIPRCNT), where numbers from 0 - 100% represent growth inhibition, and numbers from -100% - 0 represent cell death. For example, a value of 40 represents 60% growth inhibition. […]
This is part of a sample that, as a whole, favours compounds with a hit. Of some 83,000 tested, about 20% had one in any assay. Calls of active or inactive are those of the source. The calls were made as follows: active = growth percent below 10; inactive = the rest.
MEASURE NAME: growth

Worked cases, answers included:
Q. Item under review: CC(C)(C)C(=O)CCCCCCCC/C=C/CCCC(O)c1ccco1 (stereo not given) . Reported growth?
A. 118% (inactive)

Q. Quick one: growth of COc1ccc2c(c1)/C(=C/c1c(-c3cc(OC)c(OC)c(OC)c3)nc3sccn13)C(=O)N2 ?
A. 99.5% (inactive)

Q. What value of growth has been reported for the following molecule? CCOc1ccc(Br)cc1/C=C(\C#N)c1ccc([N+](=O)[O-])cc1
A. 84.7% (inactive)

Q. Field request: growth | item: CN1NC(c2ccccc2)NN(C)C1=O
A. 96.6% (inactive)

Q. Fill blank: measured growth of the molecule N#CCc1ncc(-c2ccc(C(F)(F)F)cc2)c(NC2CCCCCC2)n1 is ____.
A. 22.1% [100 µM] (inactive)

Okay, next one:
Q. # growth lookup, item CC1CCCCC[N+]12CCCC2 (stereo not given)
A. 95.6% (inactive)

* * *

System: ACHN renal
Test: NCI-60 one-dose screen, 48 h (100 = growth as untreated, 0 = no growth, -100 = all killed)
Settings: 10 µM unless noted
Experimental: Growth inhibition of the ACHN human tumor cell line is measured as a screen for anti-cancer activity. Cells are grown in 96 well plates and exposed to the test compound for 48 hours. Compounds are tested at a single concentration, which is 10^-5 M for most compounds. The reported endpoint is percent growth (GI% or GIPRCNT), where numbers from 0 - 100% represent growth inhibition, and numbers from -100% - 0 represent cell death. For example, a value of 40 represents 60% growth inhibition. […]
About 83,000 compounds went through this panel and 20% of them were active in at least one assay; those are over-represented in the sample as a whole.
Reported growth values are given for each entry in this list.
Respond numerically; units are % and should not be typed.

Q. Lab request: please report growth under test system ACHN renal for COc1cccc2c1nc1cccc(OC)c1[n+]2[O-]
A. 2.52

***
Q. Missing value: growth, ACHN renal, entry Cc1ccc(C(C)C)c(OCc2ccc(C(=O)N/N=C/c3cccc(O)c3O)cc2)c1 . Fill in?
A. 12.8

Q. API: value(readout= growth, system= ACHN renal, query= COc1ccc(Cn2cc3c(c2-c2ccccc2)CCc2cnoc2-3)cc1N )
A. 31

* * *

Listed here are compounds together with their documented growth.
system: NCI-H23 lung; experiment: NCI-60 one-dose screen, 48 h (100 = growth as untreated, 0 = no growth, -100 = all killed); conditions: 10 µM unless noted
About 83,000 compounds went through this panel and 20% of them were active in at least one assay; those are over-represented in the sample as a whole.
Your answer should be a plain number; it is taken to be in %.

Worked cases, growth given:
Q. Would you mind telling me what growth value was observed for N=C(N)c1ccc(-c2ccc(-c3cc(Cl)cc(Cl)c3)s2)cc1 ?
A. -77.4

Q. Dear colleague, I am looking for the recorded growth of the following compound: COC(=O)c1ccc2[nH]c(O)c(C(=Nc3ccc(N(C)C(=O)CN4CCN(C)CC4)cc3)c3cccc(OC)c3)c2c1
A. 7.62

Q. Look up growth for this compound: C=CCNCCC#N
A. 113

Q. Bench note: what growth did COC(=O)c1ccc(C(=Nc2ccc(N(C)C(=O)CN3CCN(C)CC3)cc2)c2c(O)[nH]c3ccc(C(=O)OC)cc23)cc1 show?
A. 35.4

Q. Dear colleague, I am looking for the recorded growth of the following compound: O=C(Nc1cccc(Cn2c(=O)[nH]c3ccc(Oc4ncccn4)cc3c2=O)c1)c1cccc(F)c1
A. 82.2

Q. Look up growth: COc1ccc(/C(=C(\c2ccccc2)[N+](=O)[O-])c2ccc(OCCN3CCCC3)cc2)cc1
A. 74.9

Continuing:
Q. So what's the measured growth for this one? Cc1ncc(C(=O)Nc2ccc(CN3CCN(C)CC3)c(C(F)(F)F)c2)cc1C#Cc1c(N)ncc2ccc(F)cc12
A. -79.4

Q. Field request: growth | item: Cc1ccc(NC(=O)CCl)cc1Cl
A. 89.2

Q. So what's the measured growth for this one? CC(=O)c1nn(-c2ccc(C)cc2)cc1C(=O)c1cc2c(ccc3ccccc32)oc1=O
A. 91.2
